Collected IC50 for Dihydroorotate dehydrogenase (quinone), mitochondrial (Homo sapiens, UniProt Q02127) across several studies; molecules listed below.
Categories are assigned from the measured IC50 using these intervals: low (below 5 nM), intermediate (5 nM to below 100 nM), high (100 nM or more)

CCn1c(CO)nn(-c2cc3c(cc2F)C(=O)N(c2cc(C)ccc2F)CN3C(C)C)c1=O    intermediate
Cc1ccc(Nc2cnc(-c3ccccc3C(F)(F)F)c(C)c2)c(C(=O)O)c1    intermediate
Cc1cc(C(=O)O)c2nc(-c3ccc(-c4cnccn4)cc3)[nH]c2c1    high
COc1cccc(-c2ncc(Nc3ccc(C(F)(F)F)cc3C(=O)O)cc2C)c1    high
CCC(C)c1cn(-c2c(F)cccc2Cl)c(=O)c2cc(F)c(-n3nc(CO)n(CC)c3=O)cc12 (racemic)    low
CCC[C@H](C)N1CN(c2c(F)cccc2Cl)C(=O)c2cc(F)c(-n3nc(CO)n(CC)c3=O)nc21    low

Pick a category. Item: "Cc1ccc(Nc2ccc(-c3c(F)ccc(F)c3F)nc2)c(C(=O)O)c1"
intermediate

Any idea which band "C=C(C)c1cn(-c2cccc(OC)c2Cl)c(=O)c2cc(F)c(-n3nc(CO)n(CC)c3=O)cc12" is in?
low

Category of CCn1c(CO)nn(-c2cc3c(C(C)C(F)(F)F)nn(-c4ccccc4C)c(=O)c3cc2F)c1=O (racemic) , please.
low

Lab note: sort "CCn1c(CO)nn(-c2cc3c(C(C)C)cc(-c4c(C)ccnc4Cl)nc3cc2F)c1=O" into the matching IC50 band.
low

Given "O=C(O)c1cccc2[nH]c(-c3c(F)c(F)c(-c4cccc(OC(F)(F)F)c4)c(F)c3F)nc12" , name the class its IC50 places it in.
high

Category of "Cc1cc(C(=O)O)c2[nH]c(-c3ccc(-c4c(F)cccc4F)cc3)nc2c1" , please.
high

---

IC50 values for Dihydroorotate dehydrogenase (quinone), mitochondrial (Homo sapiens, UniProt Q02127) compiled from several publications are listed below.
Assign labels as follows, please: class 1 for IC50 below 30 nM; class 0 for IC50 equal to or exceeding 30 nM.

Cc1cnc(Nc2ccc(-c3cccc(OC(F)(F)F)c3)cc2F)c(C(=O)O)c1    class 0
COc1cccc(-c2cc(F)c(Nc3ncccc3C(=O)O)cc2C)c1    class 0
O=C(O)c1cc(Cl)cc2c1N=C(c1ccc(-c3ccccc3)cc1)C2    class 0

Bench note: check whether "CCn1c(CO)nn(-c2cc3c(C(C)C)cc(-c4c(Cl)n[nH]c4C)nc3cc2F)c1=O" shows IC50 below 30 nM
class 1

Does "C=C(C)c1cn(-c2ccccc2Cl)c(=O)c2cc(F)c(-n3nc(CO)n(CC)c3=O)cc12" have IC50 strictly under 30 nM?
class 1

---

Study the reported pIC50 values for UniProt Q02127 given below; they originate from different publications.
Answers are plain numbers, as −log10 of the molar value.

These solved cases illustrate the format of a correct answer.
CCn1c(CO)nn(-c2nc3c(C(C)C)nn(-c4ccccc4C)c(=O)c3cc2F)c1=O    8.71
CCn1c(CO)nn(-c2cc3c(C(C)C)cn(-c4scnc4C)c(=O)c3cc2F)c1=O    7.89
COc1cc(-c2nc3c(C(=O)O)cccc3[nH]2)cc(OC)c1-c1ccccc1    6.01

// for each compound below, give its pIC50
1. C=C(C)c1cn(-c2ccccc2C)c(=O)c2ccc(-n3nc(CO)n(CC)c3=O)cc12
2. CCn1c(CO)nn(-c2cc3c(C(C)C(F)(F)F)cc(-c4ccccc4C)nc3cc2F)c1=O (single isomer, unassigned)
3. O=C(O)c1cccc2[nH]c(-c3ccc(-c4ccccc4)cc3)nc12
4. C=C(C)C1CN(c2c(F)cccc2Cl)C(=O)c2cc(F)c(-n3nc(CO)n(CC)c3=O)cc21 (single isomer, unassigned)
5. CCn1c(CO)nn(-c2cc3c(C(C)C)cn(-c4ccccc4C(F)F)c(=O)c3cc2F)c1=O

1. 9.20
2. 8.28
3. 6.10
4. 8.70
5. 9.28

Please give pIC50, item by item, for the list that follows.
1. C=C(C)[C@@H]1CN(c2c(C)cnc(OC)c2C)C(=O)c2cc(F)c(-n3nc(CO)n(CC)c3=O)cc21 (single isomer, unassigned; atropisomer 1)
2. Cc1cc(Nc2ccc(C3CC3)cc2C(=O)O)cnc1-c1ccccc1
3. Cc1ccc(Nc2cnc(-c3ccccc3F)c(C)c2)c(C(=O)O)c1
4. O=C(O)c1cc(C2CC2)ccc1Nc1cnc(-c2ccccc2C(F)(F)F)nc1

7.70
8.22
8.30
8.05

---

System: Dihydroorotate dehydrogenase (quinone), mitochondrial (Homo sapiens) | Read-out: IC50 | Origin: multiple publications
Consider the reported IC50 of an entry and match it to a band in category 1: < 3 nM; category 2: ≥ 3 nM and < 30 nM; category 3: ≥ 30 nM

Examples with answers:
CCn1c(CO)nn(-c2cc3c(C(C)C)cn(-c4cc(OC)ncc4F)c(=O)c3cc2F)c1=O    category 2
COc1cccc(-c2cc(F)c(Nc3ncccc3C(=O)O)c(F)c2)c1F    category 3
CCn1c(CO)nn(-c2cc3c(C(C)C)cn(-c4cccc(F)c4C)c(=O)c3cc2F)c1=O    category 1
CCn1c(CO)nn(-c2ccc3c(=O)n(-c4cccc(F)c4)cc(-c4ccccc4)c3c2)c1=O    category 3
CCn1c(CO)nn(-c2cc3c(C(C)C)cn(-c4c(F)cccc4Cl)c(=O)c3cc2F)c1=O    category 1

Please let me know in which category the item "C=C(C)c1cn(-c2cccc(F)c2)c(=O)c2ccc(-n3nc(CO)n(CC)c3=O)cc12" belongs.
category 2

Which category fits this record: "O=C(O)c1cccc2nc(-c3c(F)c(F)c(-c4cccc(F)c4)c(F)c3F)[nH]c12"
category 2

Looking at "CCn1c(CO)nn(-c2cc3c(C(C)C)cc(N4CCCC[C@H]4C)nc3cc2F)c1=O" , which class would you pick?
category 3

Which bin, given its IC50, does "CCn1c(CO)nn(-c2nc3c(cc2F)C(=O)N(c2c(F)cccc2Cl)CN3C2CCC2)c1=O" occupy?
category 1

State the class of the molecule shown: "Cc1c(-c2ccccc2Cl)cc(F)c(Nc2ncccc2C(=O)O)c1F"
category 2

Assign a bin to "O=C(O)c1cccc2nc(-c3c(F)c(F)c(-c4cccc(OCc5ccccc5)c4)c(F)c3F)[nH]c12"
category 2

Lab note: sort "CCn1c(CO)nn(-c2cc3c(C(C)C)cn(-c4c(C)cccc4F)c(=O)c3cc2F)c1=O" into the matching IC50 band.
category 1

---

What follows is literature data on IC50 for Dihydroorotate dehydrogenase (quinone), mitochondrial (Homo sapiens, UniProt Q02127).
Numbers only, in nM.

Go through the list and state IC50 for each entry.
1. Cc1cc(C(=O)O)c2nc(-c3c(F)c(F)c(-c4ccc(CN5CCCCC5)cc4)c(F)c3F)[nH]c2c1
2. O=C(O)c1cccc2[nH]c(-c3c(F)c(F)c(-c4ccc(F)cc4)c(F)c3F)nc12
3. C=C(C)c1cn(-c2cc(OC)ccc2Cl)c(=O)c2cc(F)c(-n3nc(CO)n(CC)c3=O)cc12

1. 78
2. 808
3. 1.21

Here are 2 molecules. What values of IC50 were reported for them?
1. CCn1c(CO)nn(-c2cc3c(C(C)C)cn(-c4ccc(F)cc4C)c(=O)c3cc2F)c1=O
2. CCn1c(CO)nn(-c2cc3c(C(C)C)cc(N4CCCC[C@@H]4C)nc3cc2F)c1=O

0.459
230

---

Study the reported IC50 values for Dihydroorotate dehydrogenase (quinone), mitochondrial (Homo sapiens, UniProt Q02127) given below; they originate from different publications.

O=C(O)c1cccnc1Nc1c(F)cc(-c2cccc(OC3CCC3)c2)cc1F    90 nM
C=C(C)c1cn(-c2c(Cl)cccc2Cl)c(=O)c2ccc(-n3nc(CO)n(CC)c3=O)cc12    0.839 nM
CCn1c(CO)nn(-c2cc(O[C@@H](C)C(F)(F)F)c(/C(F)=C/c3cnccc3C(F)F)cc2F)c1=O    3.9 nM
C=C(C)c1cn(-c2cccc(OCCO)c2Cl)c(=O)c2cc(F)c(-n3nc(CO)n(CC)c3=O)cc12    1.65 nM
CCn1c(CO)nn(-c2cc3c(C(C)C)cn([C@H]4CCC[C@H]4C)c(=O)c3cc2F)c1=O (stereo in doubt)    1.32 nM
CCn1c(CO)nn(-c2cc3c(C(C)C)cn(-c4ccccc4OC)c(=O)c3cc2F)c1=O    0.772 nM
C[C@H](Oc1cc(-n2nc3n(c2=O)CCC2(CC2)C3)c(F)cc1C(=O)Nc1c(F)cccc1C(F)(F)F)C(F)(F)F    < 50 nM
C=C(C)c1cn(-c2ccccc2C)c(=O)c2cc(F)c(-n3nc(CO)n(CC)c3=O)nc12    1.01 nM
Cc1cc(N)ccc1NC(=O)c1cc(F)c(-n2nc3n(c2=O)CCC2(CC2)C3)cc1O[C@@H](C)C(F)(F)F    < 50 nM
CCOc1cccc(-c2ccc(Nc3ncccc3C(=O)O)c(F)c2)c1    200 nM

Quick one: give me IC50 for each item below, same order please.
1. Cc1cc(C(=O)O)c2c(c1)nc(-c1c(F)c(F)c(-c3ccccc3)c(F)c1F)n2C
2. Cc1cc(C(=O)O)c2nc(-c3ccc(-c4ccc(Oc5ccccc5C=O)cc4)cc3)[nH]c2c1
3. CCC(C)C1CN(c2c(F)cccc2Cl)C(=O)c2cc(F)c(-n3nc(CO)n(CC)c3=O)cc21 (single isomer, unassigned)
4. C=C(C)C1CN(c2c(C)n[nH]c2Cl)C(=O)c2cc(F)c(-n3nc(CO)n(CC)c3=O)cc21 (single isomer, unassigned)
5. CCn1c(CO)nn(-c2ccc3c(c2)C(C(C)C)CN(c2cccc(F)c2)C3=O)c1=O (racemic)

1: 3 nM; 2: 1050 nM; 3: 6 nM; 4: 10 nM; 5: 190 nM

Batch request: IC50 for each of the following compounds.
1. Cc1cc(C(=O)O)c2[nH]c(-c3ccc(-c4ccc(O)c(O)c4)cc3)nc2c1
2. CCn1c(CO)nn(-c2cc3c(C(C)C)cc(-c4ccccc4C)[n+]([O-])c3cc2F)c1=O
3. CCn1c(CO)nn(-c2cc3c(C(C)C)cn(-c4c(C)cnc(OC)c4Cl)c(=O)c3cc2F)c1=O

645 nM
4.6 nM
0.617 nM

Record IC50 per entry; entries follow.
1. CCn1c(CO)nn(-c2nc3c(cc2F)C(=O)N(c2c(F)cccc2Cl)CN3[C@@H](C)C(F)(F)F)c1=O
2. Cc1ccc(Nc2ccc(-c3cc(OC(C)C)ccc3F)nc2)c(C(=O)O)c1
3. Cc1ccc(Nc2cc(Cl)cnc2-c2ccccc2)c(C(=O)O)c1
4. Cc1ccc(Nc2ccc(-c3ccc(F)cc3F)nc2)c(C(=O)O)c1
5. Cc1nc2c(C(=O)O)cc(-c3ccc(-c4ccccc4CN4CCCC4)cc3)cc2[nH]1
6. CCn1c(CO)nn(-c2cc3c(C(C)C)cc(-c4c[nH]nc4C)nc3cc2F)c1=O
7. Cc1cc(C(=O)O)c2nc(-c3ccc(-c4cnn(Cc5ccccc5)c4)cc3)[nH]c2c1

< 0.5 nM
28 nM
62 nM
146 nM
1 to 9.9 nM
9.4 nM
155 nM
